Reported Dmax values for a set of compounds
Target: BRAF D594G (Homo sapiens, UniProt P15056, D594G)
Construct: Horizon Discovery (HCT-116 BRAF−/− cells); host or cells: HCT-116 BRAF−/− cells, clone 63, lentiviral transduction
Sequence (P15056 whole entry D594G): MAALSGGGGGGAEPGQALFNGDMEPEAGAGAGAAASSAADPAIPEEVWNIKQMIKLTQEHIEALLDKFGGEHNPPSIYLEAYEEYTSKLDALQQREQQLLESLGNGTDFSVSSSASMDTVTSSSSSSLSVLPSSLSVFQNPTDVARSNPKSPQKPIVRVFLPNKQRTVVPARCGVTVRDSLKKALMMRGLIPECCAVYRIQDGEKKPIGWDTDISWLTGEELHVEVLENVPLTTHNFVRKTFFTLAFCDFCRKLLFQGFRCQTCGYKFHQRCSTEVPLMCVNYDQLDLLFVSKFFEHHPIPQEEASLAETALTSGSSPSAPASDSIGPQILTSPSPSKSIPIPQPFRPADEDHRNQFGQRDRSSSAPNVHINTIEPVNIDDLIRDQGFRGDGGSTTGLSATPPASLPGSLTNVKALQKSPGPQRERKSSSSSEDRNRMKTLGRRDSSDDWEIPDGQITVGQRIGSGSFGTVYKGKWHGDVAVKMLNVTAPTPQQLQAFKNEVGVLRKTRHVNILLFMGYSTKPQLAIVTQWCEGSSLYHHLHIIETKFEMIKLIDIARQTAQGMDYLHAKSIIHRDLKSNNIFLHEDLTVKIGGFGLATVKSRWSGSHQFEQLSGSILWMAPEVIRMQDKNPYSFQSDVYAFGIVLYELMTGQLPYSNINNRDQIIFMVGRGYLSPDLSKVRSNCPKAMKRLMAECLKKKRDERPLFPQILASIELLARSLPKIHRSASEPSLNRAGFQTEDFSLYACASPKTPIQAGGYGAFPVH
Assay: BRAF HiBiT degradation assay, C-terminal HiBiT-tagged BRAF D594G overexpressed in HCT-116 BRAF−/− cells (clone 63), Nano-Glo HiBiT Lytic assay
Format: cell-based
Details: HCT-116; BRAF D594G; percentage protein degraded at maximal compound effect relative to DMSO

A selection of reference data follows.
compound: CCCS(=O)(=O)Nc1cccc(-c2nc(C(C)(C)C)sc2-c2ccnc(Nc3cnn(CC4CCN(C(=O)CN5CCC(c6ccc(NC7CCC(=O)NC7=O)cc6)CC5)CC4)c3)n2)c1F (racemic)
Dmax: < 30%
//
compound: CCCS(=O)(=O)Nc1cccc(-c2nc(C(C)(C)C)sc2-c2ccnc(Nc3ccc(C4CCN(CC5CCN(c6ccc(C7CCC(=O)NC7=O)cn6)CC5)CC4)cc3)n2)c1F (racemic)
Dmax: 30 to 70%
//
compound: CCCS(=O)(=O)Nc1cccc(-c2nc(C(C)(C)C)sc2-c2ccnc(NC3CC4(CCN(C(=O)CN5CCC(c6ccc(NC7CCC(=O)NC7=O)cc6)CC5)CC4)C3)n2)c1F (racemic)
Dmax: < 30%
//
compound: CCN(C)S(=O)(=O)Nc1cccc(-c2nc(C(C)(C)C)sc2-c2ccnc(Nc3ccc(N4CCN(CC5CCN(c6ccc([C@H]7CCC(=O)NC7=O)cc6)CC5)CC4)cn3)n2)c1F
Dmax: 30 to 70%

Now let's try a different one.
Look up Dmax: CCCS(=O)(=O)Nc1cccc(-c2nc(C(C)(C)C)sc2-c2ccnc(Nc3cnn(CC4CCN(C(=O)C[C@H]5CCN(c6ccc(C7CCC(=O)NC7=O)cc6)C5)CC4)c3)n2)c1F (mixture of isomers) 30 to 70%

###

Target: BRAF D594G (Homo sapiens, UniProt P15056, D594G)
Construct: Horizon Discovery (HCT-116 BRAF−/− cells); host or cells: HCT-116 BRAF−/− cells, clone 63, lentiviral transduction
Assay: BRAF HiBiT degradation assay, C-terminal HiBiT-tagged BRAF D594G overexpressed in HCT-116 BRAF−/− cells (clone 63), Nano-Glo HiBiT Lytic assay
Type: cell-based
Settings: BRAF D594G (Class 3), HCT-116 BRAF−/− cells; observed Dmax relative to DMSO control
Description: An A375 cell line expressing a homozygous V600E mutation was purchased from ATCC (Manassas, VA, USA). […] HiBiT signal was measured by a Nano-Glo HiBiT Lytic assay (Promega cat. no. N3050). […] Luminesce units (LU) were read on an EnVision plate reader 2105 (Perkin Elmer). Percent protein remaining and viability remaining per sample were calculated as follows: […]
measurement.label: Dmax

A selection of reference data follows.
compound: O=C1CCC(c2ccc(N3CCC(CN4CCN(c5ccc(-n6cc(-c7cc(Cl)cc(NS(=O)(=O)N8CC(F)C8)c7F)c(-c7ccncc7)n6)c(F)c5)CC4)CC3)nc2)C(=O)N1 (racemic)
Dmax: 30 to 70%

compound: O=C1CCC(N2C(=O)c3ccc(N4CC(CN5CC(c6ccc(-n7cc(-c8ccc9c(c8)CC/C9=N/O)c(-c8ccncc8)n7)cc6)C5)C4)cc3C2=O)C(=O)N1 (racemic)
Dmax: < 30%

compound: C[C@@H]1CN(c2ccc(-n3cc(-c4cc(Cl)cc(NS(=O)(=O)N5CC[C@@H](F)C5)c4F)c(-c4ccncc4)n3)cc2)CCN1CC1CCN(c2ccc(C3CCC(=O)NC3=O)cn2)CC1 (mixture of isomers)
Dmax: > 70%

compound: O=C1CCC(c2ccc(N3CCC(F)(CN4CCN(c5ccc(-n6cc(-c7cc(Cl)cc(NS(=O)(=O)N8CCCC8)c7F)c(-c7ccncc7)n6)cc5)CC4)CC3)cc2)C(=O)N1 (racemic)
Dmax: > 70%

compound: O=C1CC[C@H](c2ccc(N3CCC(CN4CCN(c5cnc(-n6cc(-c7cc(Cl)cc(NS(=O)(=O)N8CCCC8)c7F)c(-c7ccncc7)n6)nc5)CC4)CC3)cc2)C(=O)N1
Dmax: > 70%

Provide the documented Dmax with BRAF D594G (Homo sapiens, UniProt P15056, D594G) as the system for "O=C1CCN(c2ccc(N3CCC(CN4CCN(c5ccc(-n6cc(-c7cc(F)cc(NS(=O)(=O)N8CC[C@@H](F)C8)c7F)c(-c7ccncc7)n6)nc5)CC4)CC3)cc2)C(=O)N1" 30 to 70%

Provide the documented Dmax with BRAF D594G (Homo sapiens, UniProt P15056, D594G) as the system for CCCS(=O)(=O)Nc1cccc(-c2nc(C3CCN(C(=O)CC4CCN(C5CCN(c6ccc7c(c6)C(=O)N(C6CCC(=O)NC6=O)C7=O)CC5)CC4)CC3)sc2-c2ccnc(N)n2)c1F (racemic) 30 to 70%

Provide the documented Dmax with BRAF D594G (Homo sapiens, UniProt P15056, D594G) as the system for "CCCS(=O)(=O)Nc1cccc(-c2cn(-c3ccc(N4CCN(CC5CCN(c6ccc([C@H]7CCC(=O)NC7=O)cc6)CC5)[C@H](C)C4)cc3)nc2-c2ccncc2)c1F" 30 to 70%

Provide the documented Dmax with BRAF D594G (Homo sapiens, UniProt P15056, D594G) as the system for "O=C1CC[C@H](c2ccc(N3CCC(CN4CCN(c5ccc(-n6cc(-c7cc(F)cc(NS(=O)(=O)N8CCCC8)c7F)c(-c7ccncc7)n6)cc5)CC4)CC3)nc2)C(=O)N1" 30 to 70%

Provide the documented Dmax with BRAF D594G (Homo sapiens, UniProt P15056, D594G) as the system for "O=C1CC[C@H](c2ccc(N3CCC(CN4CCN(c5ccc(-n6cc(-c7cc(F)cc(NS(=O)(=O)N8CC[C@@H](F)C8)c7F)c(-c7ccncc7)n6)nc5)CC4)CC3)nc2)C(=O)N1" > 70%

###

Reported DC50 values for a set of compounds
Molecular target: BRAF D594G (Homo sapiens, UniProt P15056, D594G)
Construct: Horizon Discovery (HCT-116 BRAF−/− cells); host or cells: HCT-116 BRAF−/− cells, clone 63, lentiviral transduction
Assay: BRAF HiBiT degradation assay, C-terminal HiBiT-tagged BRAF D594G overexpressed in HCT-116 BRAF−/− cells (clone 63), Nano-Glo HiBiT Lytic assay
Assay type: cell-based
Conditions: BRAF D594G; DC50 at 50%: fitted conc. at Y=50

Look up DC50: CCCS(=O)(=O)Nc1cccc(-c2nc(C(C)(C)C)sc2-c2ccnc(Nc3ccc(C4CCN(C(=O)[C@@H]5CCN(c6ccc(C7CCC(=O)NC7=O)cn6)C5)CC4)cc3)n2)c1F (mixture of isomers) > 500 nM

Look up DC50: CCCS(=O)(=O)Nc1cccc(-c2cn(-c3ccc(C4CCN(CC5CCN(c6ccc(C7CCC(=O)NC7=O)cn6)CC5)CC4)cc3)nc2-c2ccncc2)c1F (racemic) > 500 nM

Look up DC50: CCCS(=O)(=O)Nc1cccc(-c2nc(C(C)(C)C)sc2-c2ccnc(NC3CC4(C3)CN(C(=O)CN3CCC5(CC3)CN(c3ccc6c(c3)C(=O)N(C3CCC(=O)NC3=O)C6=O)C5)C4)n2)c1F (racemic) > 500 nM

Look up DC50: CCCS(=O)(=O)Nc1cccc(-c2cn(-c3ccc(N4CCN(CC5CCN(c6ccc(C7CCC(=O)NC7=O)cc6F)CC5)CC4)cc3)nc2-c2ccncc2)c1F (racemic) 10 to 50 nM

###

Molecular target: BRAF V600E (Homo sapiens, UniProt P15056, V600E)
Construct: endogenous C-terminal HiBiT fusion tag on BRAF V600E allele; endogenous in cells; host or cells: A375 clone 1F10 (CRISPR-Cas9 knock-in of the HiBiT tag; parental A375 from ATCC)
Sequence (P15056 whole entry V600E, the tested form may be a part): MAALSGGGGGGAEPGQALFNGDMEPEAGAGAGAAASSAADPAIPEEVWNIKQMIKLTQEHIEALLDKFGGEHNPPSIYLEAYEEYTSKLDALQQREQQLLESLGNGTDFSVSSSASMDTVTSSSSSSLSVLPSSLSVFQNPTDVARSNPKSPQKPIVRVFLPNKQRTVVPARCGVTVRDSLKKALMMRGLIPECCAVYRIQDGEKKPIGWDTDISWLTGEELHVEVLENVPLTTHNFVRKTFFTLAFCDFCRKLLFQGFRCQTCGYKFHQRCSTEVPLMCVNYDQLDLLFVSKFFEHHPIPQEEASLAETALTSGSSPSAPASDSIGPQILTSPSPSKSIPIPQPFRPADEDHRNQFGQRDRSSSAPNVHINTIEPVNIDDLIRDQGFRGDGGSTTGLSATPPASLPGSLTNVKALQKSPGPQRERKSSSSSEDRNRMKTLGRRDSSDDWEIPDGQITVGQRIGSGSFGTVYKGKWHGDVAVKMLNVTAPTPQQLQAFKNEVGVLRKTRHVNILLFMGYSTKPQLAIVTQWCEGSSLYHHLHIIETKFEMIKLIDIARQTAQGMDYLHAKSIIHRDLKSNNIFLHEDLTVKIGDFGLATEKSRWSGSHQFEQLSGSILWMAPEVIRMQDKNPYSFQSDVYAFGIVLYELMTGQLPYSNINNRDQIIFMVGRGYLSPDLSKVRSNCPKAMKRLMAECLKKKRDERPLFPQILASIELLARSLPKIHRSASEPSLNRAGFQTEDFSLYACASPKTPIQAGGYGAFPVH
Assay: BRAF HiBiT degradation assay, C-terminal HiBiT-tagged BRAF V600E A375 cells (clone 1F10), Nano-Glo HiBiT Lytic assay
Assay type: cell-based
Details: A375 (BRAF V600E); DC50 at 50%: fitted conc. at Y=50
Reported DC50 values for a set of compounds

compound: CCCS(=O)(=O)Nc1cccc(-c2nc(C3CCN(C(=O)CN4CCC5(CC4)CN(c4ccc6c(c4)C(=O)N(C4CCC(=O)NC4=O)C6=O)C5)CC3)sc2-c2ccnc(NC)n2)c1F (racemic) [Compound 219]
DC50: < 10 nM
--
compound: CCCS(=O)(=O)Nc1cccc(-c2nc(C(C)(C)C)sc2-c2ccnc(Nc3ccc(N4CCN(CC5CCN(c6ccc(C7CCC(=O)NC7=O)cn6)CC5)CC4)c(F)c3)n2)c1F (racemic) [Compound 45]
DC50: 10 to 50 nM

Now let's try a different one.
Provide the documented DC50 with BRAF V600E (Homo sapiens, UniProt P15056, V600E) as the system for CCN(C)S(=O)(=O)Nc1cccc(-c2nc(C(C)(C)C)sc2-c2ccnc(Nc3ccc(N4CCN(CC5CC6(C5)CN(c5ccc(C7CCC(=O)NC7=O)cn5)C6)CC4)cn3)n2)c1F (racemic) [Compound 30] < 10 nM
